# method: Brain to plasma ratio in iv dosed rat measured after 30 mins
# Type: ADME, organism-based
# experimentalParameters: read-out: BPR

- molecule: "COc1ccc(C2=NN(C3CCCC3)C(=O)[C@@H]3CC=CC[C@H]23)cc1Cl"
  Kp at 0.5 h: 1.69

====

# testedOn: High affinity 3',5'-cyclic-AMP phosphodiesterase 7A (Homo sapiens)
# Sequence (Q13946 whole entry): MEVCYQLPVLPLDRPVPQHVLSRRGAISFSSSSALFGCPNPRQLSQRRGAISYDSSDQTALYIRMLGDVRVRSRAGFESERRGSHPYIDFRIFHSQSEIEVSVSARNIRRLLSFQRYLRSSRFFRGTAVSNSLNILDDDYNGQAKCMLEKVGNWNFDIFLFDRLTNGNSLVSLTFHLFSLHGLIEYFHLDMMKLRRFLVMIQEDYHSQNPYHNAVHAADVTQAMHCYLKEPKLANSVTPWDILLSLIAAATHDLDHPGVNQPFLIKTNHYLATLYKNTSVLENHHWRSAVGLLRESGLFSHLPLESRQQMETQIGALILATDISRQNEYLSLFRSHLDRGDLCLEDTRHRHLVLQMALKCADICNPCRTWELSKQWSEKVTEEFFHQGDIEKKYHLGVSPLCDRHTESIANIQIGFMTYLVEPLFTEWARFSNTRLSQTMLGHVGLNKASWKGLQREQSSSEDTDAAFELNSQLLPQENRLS
# method: Inhibition of recombinant PDE7A1 (unknown origin) expressed in Escherichia coli BL21 using [3H]cAMP as substrate preincubated for 15 mins followed by compound addition and measured after 1 hr by liquid scintillation method
pIC50: −log10 of the molar value.
assayReadout: pIC50

- compound: "FC(F)(F)c1cc(N2C(=S)Nc3ccccc3C23CCc2ccccc2N3)cc(C(F)(F)F)c1 (configuration not stated)"
  testedOn: "High affinity 3',5'-cyclic-AMP phosphodiesterase 7A (Homo sapiens)"
  modifier: ">"
  reading: 6.77
- compound: "O=C1Nc2c(Cl)ccc(Oc3ccccc3-c3nnn[nH]3)c2C2(CCCCC2)N1"
  testedOn: "High affinity 3',5'-cyclic-AMP phosphodiesterase 7A (Homo sapiens)"
  modifier: ">"
  reading: 9.82
- compound: "Cn1nc(-c2ccc(C(N)=O)cc2)s/c1=N\\[C@@H]1CCC[C@@H](O)C1"
  testedOn: "High affinity 3',5'-cyclic-AMP phosphodiesterase 7A (Homo sapiens)"
  modifier: "="
  reading: 6.21
- compound: "Cn1nc(-c2ccc(C(N)=O)cc2)s/c1=N\\C1CCCCC1"
  testedOn: "High affinity 3',5'-cyclic-AMP phosphodiesterase 7A (Homo sapiens)"
  modifier: "="
  reading: 4.82
- compound: "CN(C)C(=O)CCN(C)C(=O)c1nc2cc(Cl)c3c(c2o1)C1(CCCCC1)NC(=O)N3"
  testedOn: "High affinity 3',5'-cyclic-AMP phosphodiesterase 7A (Homo sapiens)"
  modifier: ">"
  reading: 8.00
- compound: "O=C1Nc2c(Cl)cc3nc(CN4CCNCC4)oc3c2C2(CCCCC2)N1"
  testedOn: "High affinity 3',5'-cyclic-AMP phosphodiesterase 7A (Homo sapiens)"
  modifier: ">"
  reading: 8.00
- compound: "Cn1nc(-c2ccc(Cl)cc2)s/c1=N\\c1ccc(F)c(C(=O)O)c1"
  testedOn: "High affinity 3',5'-cyclic-AMP phosphodiesterase 7A (Homo sapiens)"
  modifier: "="
  reading: 5.40
